Measured kinase still bound, per cent of control, listed per entry.
Molecular target: PIK3C2B (human)
Assay: KINOMEscan competition binding
Details: compound 10.0 µM
Record the value in %, omitting the unit from your answer.

Smiles Repr: Cn1c(=O)n(-c2ccc(C(C)(C)C#N)cc2)c2c3cc(-c4cnc5ccccc5c4)ccc3ncc21
kinase still bound, per cent of control (%): 2.8

Next, consider the following compound.
Param item = COc1cc(C(=O)NC2CCN(C)CC2)ccc1Nc1ncc2c(n1)N(C1CCCC1)CCC(=O)N2C(C)C ; retrieve measured kinase still bound, per cent of control.
100

====

Target: OXSR1 (human)
Test: KINOMEscan competition binding
Conditions: compound 10.0 µM
Entries and their kinase still bound, per cent of control values follow.
Write the value in % as a bare number.

Observe how each entry below is paired with its result.
Smiles Repr: Nc1ccc(-c2ccc3ncc4ccc(=O)n(-c5cccc(C(F)(F)F)c5)c4c3c2)cn1
System Under Test: OXSR1 (human)
Val: 100

Smiles Repr: CCN1CCN(Cc2ccc(Nc3ncc4c(n3)N(C)c3ccccc3C(=O)N4C)cc2C(F)(F)F)CC1
System Under Test: OXSR1 (human)
Val: 59

Smiles Repr: CCC(=O)N1CCN(c2ccc(-n3c(=O)ccc4cnc5ccc(-c6cnc7ccccc7c6)cc5c43)cc2C(F)(F)F)CC1
System Under Test: OXSR1 (human)
Val: 100

Smiles Repr: CCCS(=O)(=O)Nc1ccc(F)c(C(=O)c2c[nH]c3ncc(-c4ccc(Cl)cc4)cc23)c1F
System Under Test: OXSR1 (human)
Val: 95

In the following, a different compound is considered.
Which measured kinase still bound, per cent of control value corresponds to O=C(NC1CC1)c1cccc(-c2ccc3c(NC(=O)C4CC4)n[nH]c3c2)c1 ?
98
